Listing: TGI of selected compounds
Test system: 786-0 renal
testDetails: NCI tumour cell line growth inhibition, 48 h
propertyLabel: TGI

# compound, propertyLabel, result
data = [
    ("Cc1cccc(C)c1NC(=O)C1C(=O)N(c2c(C)cccc2C)C(=O)/C1=N\\N (stereo unspecified)", "TGI", "> 100 µM"),
    ("CC(=O)OCC1OC(n2c(-c3ccccc3)c(C(C)=O)c(-c3cccc4ccccc34)c(C#N)c2=S)C(OC(C)=O)C(OC(C)=O)C1OC(C)=O (stereo unspecified)", "TGI", "> 100 µM"),
    ("C/C(CC(O)(/C=N/O)c1ccccc1)=N/O (stereo unspecified)", "TGI", "> 100 µM"),
    ("Nc1nnnn1CCO", "TGI", "> 100 µM"),
    ("CCOC(=O)C1=CCOc2cc(N(C)C)ccc21", "TGI", "> 100 µM"),
    ("C[C@@]12CCC[C@@](C)(C(=O)O)C1CC[C@]13C[C@@](O)(CO)[C@](O)(CCC12)C3 (stereo partly specified)", "TGI", "> 100 µM"),
]

----------
Tested on: A498 renal
testDetails: NCI tumour cell line growth inhibition, 48 h
Recorded TGI, one value per entry.

# molecule, TGI
measured = [
    ("O=c1c(Br)cc2nc3ccccc3sc-2c1Br", "> 100 µM"),
    ("CC1(C)OC(=O)N(c2ccccc2)C12C=Cc1cccc([N+](=O)[O-])c1O2 (stereo not given)", "> 100 µM"),
    ("Cc1nnc(-c2cccc(-c3ccc(C(=O)NCC4CC4)cc3)c2)o1", "> 25 µM"),
    ("Cn1c(=O)c2c(nc3n2CCCC(=O)N3CC(O)CCl)n(C)c1=O (stereo not given)", "> 100 µM"),
    ("CCOC(=O)c1cc2c(cc1Cl)SC(N(c1ccc(OC)cc1)S(=O)(=O)c1ccc(Cl)cc1)=NS2(=O)=O", "> 100 µM"),
]

----------
Test system: U251 CNS
testDetails: NCI tumour cell line growth inhibition, 48 h
propertyLabel: TGI

# molecule, propertyLabel, result
data = [
    ("Oc1ccc(-c2nc3ccccc3s2)cc1CN(Cc1ccccn1)Cc1ccccn1", "TGI", "17.6 µM"),
    ("CC(C)=CCC[C@](C)(O)[C@H]1CC[C@]2(C)[C@@H]1CC[C@@H]1[C@@]3(C)CC/C(=N/O)C(C)(C)[C@@H]3CC[C@]12C", "TGI", "49.4 µM"),
    ("CN(C)C(c1ccccc1)C1COC2Cc3ccccc3C1O2 (centres undefined)", "TGI", "> 100 µM"),
    ("NC(=O)NCCCC(NC(=O)OCCCCCCn1ccc(=O)[nH]c1=O)C(=O)O (centres undefined)", "TGI", "> 100 µM"),
    ("COCc1cc(C(=O)Nc2cc([C@H]3CC[C@@H](OC(=O)NC(C)C)C3)[nH]n2)n(C)n1", "TGI", "> 100 µM"),
    ("CC1=C(O)C(=O)C2C(=O)C1C1Cc3ccccc3C21 (centres undefined)", "TGI", "> 100 µM"),
    ("Cn1cnc([N+](=O)[O-])c1Sc1nc(N)nc2c1ncn2C1CC(O)C(CO)O1 (centres undefined)", "TGI", "> 100 µM"),
    ("COC(=O)C1(C#N)C(C)(C)N=C(c2ccccc2)C12CCCCC2 (centres undefined)", "TGI", "> 100 µM"),
    ("CNC(=O)c1ccccc1Nc1nc(Nc2cc(OC)c(OC)c(OC)c2)ncc1Br", "TGI", "3.38 µM"),
    ("CC(=O)C1=C(O)C=C2Oc3c(C(=O)/C=C/c4c(Cl)cccc4Cl)c(O)c(C)c(O)c3[C@]2(C)C1=O", "TGI", "4.09 µM"),
    ("COc1cccc(NC(=O)c2sc3nc(C)c(C(O)c4ccccc4)cc3c2N)c1 (centres undefined)", "TGI", "22.3 µM"),
    ("COc1ccc(/C(Cl)=C(\\C=N/O)c2ccc(OC)c(OC)c2)cc1OC", "TGI", "> 100 µM"),
    ("Cc1cc(Cc2cc(C)c(NC(=O)C(=O)C3CCC4=C(SC5C=CC=CC5N4)C3=O)c(C(C)C)c2)cc(C(C)C)c1NC(=O)C(=O)C1CCC2=C(SC3C=CC=CC3N2)C1=O (centres undefined)", "TGI", "> 100 µM"),
    ("COC(=O)c1cccn1C(=O)n1cccc1", "TGI", "> 100 µM"),
]
